Below, each entry is listed alongside its reported MIC.
- Tested on: MRSA ATCC 43300
- assayText: MIC, broth microdilution (CO-ADD), MRSA
- Type: cell-based, methicillin-resistant S. aureus
- runConditions: Staphylococcus aureus; MRSA ATCC 43300; top dose 32 µg/mL; read-out: MIC MRSA

Example cases with answers are listed next.
[
  {
    "compound": "O=C(NCCCNCCCCCCCCCCNCCCNC(=O)c1c[nH]c2c(F)cccc12)c1c[nH]c2c(F)cccc12 [Compound 16e]",
    "testedOn": "MRSA ATCC 43300",
    "MIC": "≤ 0.3 µM"
  },
  {
    "compound": "O=C(NCCCNCCCCCCCCCCCCNCCCNC(=O)c1c[nH]c2ccccc12)c1c[nH]c2ccccc12.O=C(O)C(F)(F)F.O=C(O)C(F)(F)F [Compound 12f]",
    "testedOn": "MRSA ATCC 43300",
    "MIC": "≤ 0.3 µM"
  },
  {
    "compound": "COc1cccc2c(C(=O)NCCCNCCCCCCCNCCCNC(=O)c3c[nH]c4c(OC)cccc34)c[nH]c12.O=C(O)C(F)(F)F.O=C(O)C(F)(F)F [Compound 17c]",
    "testedOn": "MRSA ATCC 43300",
    "MIC": "2.44 µM"
  },
  {
    "compound": "O=C(NCCCNCCCCCCCCCCCCNCCCNC(=O)c1c[nH]c2c(F)cccc12)c1c[nH]c2c(F)cccc12.O=C(O)C(F)(F)F.O=C(O)C(F)(F)F [Compound 16f]",
    "testedOn": "MRSA ATCC 43300",
    "MIC": "≤ 0.29 µM"
  },
  {
    "compound": "O=C(NCCCNCCCCCCCCCCNCCCNC(=O)c1c[nH]c2ccccc12)c1c[nH]c2ccccc12.O=C(O)C(F)(F)F.O=C(O)C(F)(F)F [Compound 12e]",
    "testedOn": "MRSA ATCC 43300",
    "MIC": "≤ 0.31 µM"
  },
  {
    "compound": "COc1cccc2c(C(=O)NCCCNCCCCNCCCNC(=O)c3c[nH]c4c(OC)cccc34)c[nH]c12 [Compound 17a]",
    "testedOn": "MRSA ATCC 43300",
    "MIC": "20.6 µM"
  },
  {
    "compound": "Cc1cccc2c(C(=O)NCCCNCCCCCCCCCCCCNCCCNC(=O)c3c[nH]c4c(C)cccc34)c[nH]c12.O=C(O)C(F)(F)F.O=C(O)C(F)(F)F [Compound 18f]",
    "testedOn": "MRSA ATCC 43300",
    "MIC": "≤ 0.29 µM"
  }
]

Now let's try a different one.
MRSA ATCC 43300 / MIC / O=C(NCCCNCCCCNCCCNC(=O)c1c[nH]c2ccccc12)c1c[nH]c2ccccc12 [Compound 12a] : value?
22.3 µM

---

- System: S. aureus ATCC 25923
- assayText: MIC, broth dilution, S. aureus
- Format: cell-based, Staphylococcus aureus
- runConditions: Staphylococcus aureus, ATCC25923; S. aureus ATCC 25923, 18 h; read-out: MIC Sa
parameterMeasured: MIC

[
  {
    "compound": "O=C(NCCCNCCCCCCCNCCCNC(=O)c1c[nH]c2c(F)cccc12)c1c[nH]c2c(F)cccc12 [Compound 16c]",
    "observedResult": "> 251 µM"
  },
  {
    "compound": "O=C(N[C@H](CO)[C@H](O)c1ccc([N+](=O)[O-])cc1)C(Cl)Cl [Chloramphenicol, reference compound]",
    "observedResult": "1.5 to 3 µM"
  },
  {
    "compound": "Cc1cccc2c(C(=O)NCCCNCCCCCCCCNCCCNC(=O)c3c[nH]c4c(C)cccc34)c[nH]c12 [Compound 18d]",
    "observedResult": "> 250 µM"
  }
]

Next up:
# MIC lookup, item Cc1cccc2c(C(=O)NCCCNCCCCNCCCNC(=O)c3c[nH]c4c(C)cccc34)c[nH]c12 [Compound 18a]
> 269 µM
